The measurements presented in this section are drawn from PubChem BioAssay (NCI).

- Tested on: UO-31 renal
- assay summary: NCI tumour cell line growth inhibition, 48 h; in the data active means GI50 below about 0.43 µM; inactive means the rest
Can you answer with just one of these options? active, inactive

Dear colleague, could you share the recorded outcome for Nc1ncnc2c1c(-c1ccc(Oc3ccccc3)cc1)nn2C[C@@H]1SSC[C@H]1O when you have a moment?
inactive

Dear colleague, could you share the recorded outcome for C=C1CC[C@@H]2[C@](C)(COC(C)=O)[C@H](OC(C)=O)CC[C@@]2(C)[C@@H]1CC(Nc1ccc(S(=O)(=O)Nc2ccc(Cl)nn2)cc1)C1=CCOC1=O (stereo partly drawn) when you have a moment?
inactive

Dear colleague, could you share the recorded outcome for Cn1cccc1-c1cc(-c2ccc(Br)cc2)[nH]c(=O)c1C#N when you have a moment?
inactive

Dear colleague, could you share the recorded outcome for CCN1C(=O)N(CC)C2C1NN=c1s/c(=C\c3ccccn3)c(=O)n12 (stereo not drawn) when you have a moment?
inactive

Dear colleague, could you share the recorded outcome for CC(=O)[O][Sn]([CH2]c1ccccc1)([CH2]c1ccccc1)[CH2]c1ccccc1 when you have a moment?
inactive

Dear colleague, could you share the recorded outcome for Cc1ccc(-c2csc(NC(=O)N3CCN(c4cc5c(cc4F)c(=O)c(C(=O)O)cn5C4CC4)CC3)n2)cc1 when you have a moment?
active

Dear colleague, could you share the recorded outcome for C[C@]12CC[C@@H]3c4ccc(O)cc4CC[C@H]3[C@@H]1Cc1cnc(N)nc12 when you have a moment?
inactive

Dear colleague, could you share the recorded outcome for Cc1cn2c(/C=C3/C(=O)Nc4ccc(O)cc43)c(C)nc2s1 when you have a moment?
inactive

* * *

- Test system: SF-268 CNS
- assay summary: NCI tumour cell line growth inhibition, 48 h
value type: TGI

What value of measured TGI is listed for COC(=O)CC1c2ccccc2N2C(=O)Cc3c([nH]c4ccccc34)C12 (centres undefined) ?
> 100 µM

What value of measured TGI is listed for CCC1NC(N=Nc2ccc([N+](=O)[O-])cc2)(P(=O)(OC(C)C)OC(C)C)OC1=O (centres undefined) ?
> 100 µM

What value of measured TGI is listed for CCOC(=O)c1nc2ccc(C(F)(F)F)cc2nc1Oc1ccc(C(=O)OC)cc1 ?
> 100 µM

What value of measured TGI is listed for CC[C@H](CO)Nc1nc(NCc2ccccc2)c2ncn(C(C)C)c2n1 ?
> 75.1 µM

* * *

Would you mind telling me the reported TGI of each entry?
- Test system: SNB-75 CNS
- assay summary: NCI tumour cell line growth inhibition, 48 h

Notebook: pull reported TGI for SNB-75 CNS, entry CN1CC2CN(Cc3ccccc3)CCN2c2cccnc21 (configuration not stated)
> 100 µM

Notebook: pull reported TGI for SNB-75 CNS, entry ClCCCCCc1c2nc(c(CCCCCCl)c3ccc([nH]3)c(CCCCCCl)c3ccc([nH]3)c(CCCCCCl)c3nc1C=C3)C=C2
> 100 µM

Notebook: pull reported TGI for SNB-75 CNS, entry CCN(CC)c1oc(N(CC)CC)c(C(=O)Nc2ccccn2)c(=O)c1C(C)=O
> 100 µM

Notebook: pull reported TGI for SNB-75 CNS, entry O=C1/C(=N\O)S(=O)(=O)c2ccccc21
> 100 µM

Notebook: pull reported TGI for SNB-75 CNS, entry N#Cc1c(O)c(/C=N/c2ncccn2)c(=O)n2c1[nH]c1ccccc12
> 100 µM

Notebook: pull reported TGI for SNB-75 CNS, entry CNc1ccc(C(=O)CC(O)CCC(C)C2OC(=O)CC(O)CC(=O)CC(O)CC(O)CC(O)CC(O)CC3(O)CC(O)C(C(=O)NCCN4CCOCC4)C(CC(OC4OC(C)C(O)C(N)C4O)/C=C/C=C/C=C/C=C\C=C/C=C/C=C/C2C)O3)cc1 (configuration not stated)
> 100 µM

Notebook: pull reported TGI for SNB-75 CNS, entry BrCC[N+]12CC[N+](CCBr)(CC1)C2
> 100 µM

* * *

Would you mind telling me the reported TGI of each entry?
- Tested on: OVCAR-3 ovarian
- assay summary: NCI tumour cell line growth inhibition, 48 h
Entry rule: numbers only, all in µM.

What value of measured TGI is listed for C#CC1(O)CCCCCCCCC2(CCCCCCCC1)OCCO2 ?
29.3

What value of measured TGI is listed for C=C1c2ccoc2C[C@H]2[C@H]1CC[C@@]1(O)[C@@](C)(C(=O)OC)CCC[C@]21C ?
43.3

What value of measured TGI is listed for N#Cc1c(-c2ccccc2)c(CN2CCCCC2)c(=O)n2c1[nH]c1ccccc12 ?
58.3

What value of measured TGI is listed for O=S(=O)(c1cccc2c(I)cccc12)N1CCCNCC1 ?
43.3

What value of measured TGI is listed for O1[As]2O[As]3O[As]1O[As](O2)O3 ?
0.72

* * *

Would you mind telling me the reported TGI of each entry?
- Test system: HL-60(TB) leukemia
- assay summary: NCI tumour cell line growth inhibition, 48 h

What value of measured TGI is listed for CCOC(=O)/C=C(/C)Nc1nc2c(c(C(=O)OC)c1C#N)CCCC2 ?
> 100 µM

What value of measured TGI is listed for CC(C)(C)c1[nH]nc2c1C(c1cc3ccccc3[nH]c1=O)Nc1cc(C(=O)OCc3ccccc3)ccc1N2 (stereo not drawn) ?
> 100 µM

What value of measured TGI is listed for COc1ccc(-c2oc3c(OC)c(OC)cc(O)c3c(=O)c2OC)cc1 ?
> 100 µM

* * *

- System: RXF-631 renal
- assay summary: NCI tumour cell line growth inhibition, 48 h
value type: TGI

What value of measured TGI is listed for CC(C)(c1ccccc1)c1ccc(Oc2ccc(C#N)c(C#N)c2)cc1 ?
> 100 µM

What value of measured TGI is listed for O=c1c(O)c(-c2ccc(O)c(O)c2)oc2cc(O)cc(O)c12 ?
> 100 µM

What value of measured TGI is listed for CC1(C)CC2CC(CC(C)(C)C2=O)C1=O ?
> 100 µM

* * *

Would you mind telling me the reported TGI of each entry?
- System: TK-10 renal
- assay summary: NCI tumour cell line growth inhibition, 48 h

What value of measured TGI is listed for CCCN(CCC)C(=O)C(=O)c1c(N)[nH]n(-c2ccccc2)c1=O ?
> 100 µM

What value of measured TGI is listed for CC(C)(c1ccccc1)c1ccc(Oc2ccc(C#N)c(C#N)c2)cc1 ?
> 100 µM

What value of measured TGI is listed for COc1ccccc1C1c2cc3c(cc2OC(N2CCOCC2)C1C)OCO3 (stereo not given) ?
> 100 µM

What value of measured TGI is listed for O=c1oc2c(Cl)cc(Cl)cc2cc1C1=CSC2=NCCN12 ?
> 100 µM

What value of measured TGI is listed for O=C(O)c1nc(-c2ccc(Cl)c(Cl)c2)nc2ccc(Cl)cc12 ?
> 100 µM

What value of measured TGI is listed for CCOC1CC(C)N(C(=O)c2ccccc2)O1 (stereo not given) ?
> 100 µM

What value of measured TGI is listed for Cn1cc(-c2csc(-c3cn(C)c4ccccc34)n2)c2ccccc21 ?
> 100 µM

What value of measured TGI is listed for CCOC(=O)/C=C(/C)Nc1nc2c(c(C(=O)OC)c1C#N)CCCC2 ?
> 100 µM

What value of measured TGI is listed for COC(=O)c1cc2ccccc2c2c3c(ccc12)OCO3 ?
325 µM

What value of measured TGI is listed for CC1(C)[C@@H]2C[C@H]1c1cnc(-c3ccccn3)cc1C2CCCCC[C@@H]1c2cc(-c3ccccn3)ncc2[C@@H]2C[C@H]1C2(C)C (stereo not given in full) ?
> 100 µM

What value of measured TGI is listed for COc1ccc(-c2oc3c(OC)c(OC)cc(O)c3c(=O)c2OC)cc1 ?
> 100 µM

What value of measured TGI is listed for Cc1cn2c(/C=C3/C(=O)Nc4ccc(O)cc43)c(C)nc2s1 ?
26 µM

What value of measured TGI is listed for NCCN.O=C([O-])CN1CCOCC1.[OH-].[Pt+4] ?
> 100 µM

What value of measured TGI is listed for CC(=O)N(C(C)=O)c1cc2c3c(c1)CCCN3CCC2 ?
> 10 µM

What value of measured TGI is listed for COc1cc(OC)c(C(=O)/C=C/c2cccc(C#N)c2)c(OC)c1 ?
5.52 µM

* * *

Would you mind telling me the reported TGI of each entry?
- System: RXF 393 renal
- assay summary: NCI tumour cell line growth inhibition, 48 h

What value of measured TGI is listed for CCSc1nc(SCC)c2c(-c3ccc(OC)c(OC)c3)c(C#N)c(SCC)nc2n1 ?
> 100 µM

What value of measured TGI is listed for O=C1CC(=O)NC(=NNS(=O)(=O)c2ccc(Cl)cc2)N1 ?
> 100 µM

What value of measured TGI is listed for CC(=O)CC1=C(OC(C)C)C2(OCCO2)C1O (stereo not drawn) ?
> 100 µM

What value of measured TGI is listed for N#Cc1c(O)c(/C=N/c2ncccn2)c(=O)n2c1[nH]c1ccccc12 ?
> 100 µM

What value of measured TGI is listed for Cc1ccc(-c2csc(NC(=O)N3CCN(c4cc5c(cc4F)c(=O)c(C(=O)O)cn5C4CC4)CC3)n2)cc1 ?
55 µM

What value of measured TGI is listed for O=C(N/N=C(/COc1ccccc1)N=Cc1cccnc1)c1ccncc1 ?
> 100 µM

What value of measured TGI is listed for OC1CSc2nc3ccccc3n2C1 (stereo not drawn) ?
> 100 µM

What value of measured TGI is listed for C=C1C[C@H](O)[C@H](Br)C(C)(C)C12CCC(C)(Cl)C(Br)C2 (stereo partly drawn) ?
10.6 µM

What value of measured TGI is listed for C=C1c2ccoc2C[C@H]2[C@H]1CC[C@@]1(O)[C@@](C)(C(=O)OC)CCC[C@]21C ?
> 100 µM

What value of measured TGI is listed for CCc1ccc2c(c1)C(=O)c1c-2n(CCCN=[N+]=[N-])c(=O)c2cc(OC)c(OC)cc12 ?
> 100 µM

What value of measured TGI is listed for COc1cc(OC)c(C(=O)/C=C/c2cccc(C#N)c2)c(OC)c1 ?
2.05 µM

What value of measured TGI is listed for CN(Cc1cnc2c(N)nc(N)nc2n1)c1ccc(Cl)cc1 ?
61.5 µM

What value of measured TGI is listed for CSc1nc2c(c(=O)[nH]1)N=C(c1ccccc1)CC(c1ccccc1)N2 (stereo not drawn) ?
79.6 µM
